All figures here come from patent US7049289B1.

Task for the reader: assign each of the following substances its reported % retained (no thrombin).
TARGET_DESC: fibrin (in vitro human plasma clot) (Homo sapiens, UniProt P02671+P02675+P02679)
Construct: about 400 μl of human plasma containing the radiolabelled substrate; from tissue; host or cells: human plasma, clotted in vitro with added thrombin and calcium chloride
Sequence (P02671 20-644 isoform P02671-2 limits assumed): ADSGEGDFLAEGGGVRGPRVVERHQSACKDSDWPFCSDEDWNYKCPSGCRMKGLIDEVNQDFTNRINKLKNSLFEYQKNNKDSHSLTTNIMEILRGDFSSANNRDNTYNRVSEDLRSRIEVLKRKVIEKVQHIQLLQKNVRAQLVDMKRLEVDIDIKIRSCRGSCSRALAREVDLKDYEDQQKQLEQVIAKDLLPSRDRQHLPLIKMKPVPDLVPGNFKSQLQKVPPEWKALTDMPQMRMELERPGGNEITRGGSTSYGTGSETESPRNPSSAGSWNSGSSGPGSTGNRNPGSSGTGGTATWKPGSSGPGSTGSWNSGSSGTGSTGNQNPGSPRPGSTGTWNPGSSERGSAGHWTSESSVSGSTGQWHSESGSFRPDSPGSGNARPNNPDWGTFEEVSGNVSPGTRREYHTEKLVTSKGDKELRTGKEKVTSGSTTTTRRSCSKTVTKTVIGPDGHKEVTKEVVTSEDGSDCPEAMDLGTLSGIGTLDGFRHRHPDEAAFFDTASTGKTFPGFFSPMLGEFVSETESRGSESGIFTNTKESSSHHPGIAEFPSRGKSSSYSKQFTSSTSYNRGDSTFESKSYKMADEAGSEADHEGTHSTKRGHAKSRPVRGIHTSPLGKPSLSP
Sequence (P02675 45-491 limits assumed): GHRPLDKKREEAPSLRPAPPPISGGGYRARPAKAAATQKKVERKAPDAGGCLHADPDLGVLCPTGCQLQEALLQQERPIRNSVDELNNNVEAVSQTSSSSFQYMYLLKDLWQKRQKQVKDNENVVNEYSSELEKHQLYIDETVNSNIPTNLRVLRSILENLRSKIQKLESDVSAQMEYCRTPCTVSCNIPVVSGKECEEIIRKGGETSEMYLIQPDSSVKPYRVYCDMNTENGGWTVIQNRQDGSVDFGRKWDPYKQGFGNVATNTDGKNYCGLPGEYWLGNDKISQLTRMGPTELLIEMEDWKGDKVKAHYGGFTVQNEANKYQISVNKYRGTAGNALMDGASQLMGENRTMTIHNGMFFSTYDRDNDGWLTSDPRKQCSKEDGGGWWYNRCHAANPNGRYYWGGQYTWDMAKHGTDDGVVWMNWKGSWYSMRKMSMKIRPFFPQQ
Sequence (P02679 27-437 isoform P02679-2 limits assumed): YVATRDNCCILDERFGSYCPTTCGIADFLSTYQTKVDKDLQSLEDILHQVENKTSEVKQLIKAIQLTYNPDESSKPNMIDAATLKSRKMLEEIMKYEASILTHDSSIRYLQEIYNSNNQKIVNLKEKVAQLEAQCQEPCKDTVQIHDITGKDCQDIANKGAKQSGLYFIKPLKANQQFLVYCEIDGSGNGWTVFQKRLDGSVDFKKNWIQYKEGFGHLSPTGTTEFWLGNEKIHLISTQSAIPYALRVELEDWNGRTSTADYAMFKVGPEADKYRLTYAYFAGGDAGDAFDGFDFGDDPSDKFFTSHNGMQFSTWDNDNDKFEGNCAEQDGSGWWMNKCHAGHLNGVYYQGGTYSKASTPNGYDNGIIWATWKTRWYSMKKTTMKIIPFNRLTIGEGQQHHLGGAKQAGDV
METHOD_DESCRIPTION: Incorporation into human plasma clots in vitro
Assay type: biochemical
CONDITION_SUMMARY: control without thrombin and calcium chloride (non-specific binding)
code Z = not defined here
Numbers only, in %.

Ac-NQEQVSPYTLLKG-NH2 [^123I-Cmpd 2] : 0.2
Z-NQEQVSPYAAAAG-Pn216 ({code Z}-NQEQVSPYAAAAG-Pn216; reading uncertain; also: 99mTc complex, printed as Z-NQEQVSPYAAAAG-Pn216) [^99mTc-Cmpd 42] : 0.2
Ac-NQEQVSP(pBr-F)TLLKG-Pn216 [^99mTc-Cmpd 21] : 0.5

Now turn to the next substance.
-- ask Please give the measured % retained (no thrombin) for this substance: Ac-NQEQVSPYTLL(D-K)G-Pn216 [^99mTc-Cmpd 28]
-- reply 0.2

* * *

METHOD_DESCRIPTION: In vitro plasma stability (rat plasma)
Where a SMILES comes first, the peptide text is derived from it. The star is where a group is joined. X1 = CC(=NO)C(C)(C)NCC(C)(CNC(C)(C)C(C)=NO)CN*; Cbz = O=C(OCc1ccccc1)*
RECORDED_ENDPOINT: remaining at 2 h

-- ask Fill blank: measured remaining at 2 h of the compound CC(=NO)C(C)(C)NCC(C)(CNC(=O)CNC(=O)[C@H](CCCCN)NC(=O)[C@H](CC(C)C)NC(=O)[C@H](CC(C)C)NC(=O)[C@@H](NC(=O)[C@H](Cc1ccc(O)cc1)NC(=O)[C@@H]1CCCN1C(=O)[C@H](CO)NC(=O)[C@@H](NC(=O)[C@H](CCC(N)=O)NC(=O)[C@H](CCC(=O)O)NC(=O)[C@H](CCC(N)=O)NC(=O)[C@H](CC(N)=O)NC(=O)OCc1ccccc1)C(C)C)[C@@H](C)O)CNC(C)(C)C(C)=NO (stereo partly shown) [^99mTc-Cmpd 7, metal not drawn] (Cbz-NQEQVSPYTLLKG-X1; C-terminus assumed) is ____.
-- reply > 90%

* * *

METHOD_DESCRIPTION: Incorporation into clots induced in a rat model (rat inferior vena cava model)
Type: in vivo, rat (Male Wistar)
CONDITION_SUMMARY: Aged Clots
*1 amine or outer side, *2 acyl side, *3 side chain or, on linkers, in order; H or OH if unused. Glutaryl = O=C(CCCC(=O)[*:2])[*:1]
Lab note: anything with Clot/heart below 30 is marked True; values at 30 or higher are marked False.

Completed entries (count: 2):
Ac-NQEAVSPYTLLKG-Pn216 (also: 99mTc complex) [^99mTc-Cmpd 13] : True
Ac-(D-N)QEQVSP(D-Y)TLL(D-K)G-Pn216 [^99mTc-Cmpd 32] : False

-- ask Is it true that Clot/heart reported for Ac-NQEAVSPYTLLKG-Pn44 (also: 99mTc complex) [^99mTc-Cmpd 12] is less than 30?
-- reply False

-- ask What about Ac-NQEQVSP(pBr-F)TLLKG-Pn216 [^99mTc-Cmpd 21] ?
-- reply False

-- ask Continue with Ac-LGPGQSKVIG-Pn44 (also: 99mTc complex) [^99mTc-Cmpd 45]
-- reply True

-- ask Try this substance too: Ac-GQDPVKG-Pn216 (also: 99mTc complex) [^99mTc-Cmpd 48]
-- reply False

-- ask Now the substance Pn216-CO(CH2)3CO-NQEQVSPYTLLKG-NH2 ({Pn216-Glutaryl}-NQEQVSPYTLLKG-NH2; also: 99mTc complex) [^99mTc-Cmpd 39]
-- reply False

-- ask Repeat with Fmoc-NQEQVSP(I-Y)TLLKG-Pn216 [^99mTc-Cmpd 26]
-- reply False

* * *

Assign % specific uptake to each entry below.
TARGET_DESC: fibrin (in vitro human plasma clot) (Homo sapiens, UniProt P02671+P02675+P02679)
Construct: about 400 μl of human plasma containing the radiolabelled substrate; from tissue; host or cells: human plasma, clotted in vitro with added thrombin and calcium chloride
Sequence (P02671 20-644 isoform P02671-2 limits assumed): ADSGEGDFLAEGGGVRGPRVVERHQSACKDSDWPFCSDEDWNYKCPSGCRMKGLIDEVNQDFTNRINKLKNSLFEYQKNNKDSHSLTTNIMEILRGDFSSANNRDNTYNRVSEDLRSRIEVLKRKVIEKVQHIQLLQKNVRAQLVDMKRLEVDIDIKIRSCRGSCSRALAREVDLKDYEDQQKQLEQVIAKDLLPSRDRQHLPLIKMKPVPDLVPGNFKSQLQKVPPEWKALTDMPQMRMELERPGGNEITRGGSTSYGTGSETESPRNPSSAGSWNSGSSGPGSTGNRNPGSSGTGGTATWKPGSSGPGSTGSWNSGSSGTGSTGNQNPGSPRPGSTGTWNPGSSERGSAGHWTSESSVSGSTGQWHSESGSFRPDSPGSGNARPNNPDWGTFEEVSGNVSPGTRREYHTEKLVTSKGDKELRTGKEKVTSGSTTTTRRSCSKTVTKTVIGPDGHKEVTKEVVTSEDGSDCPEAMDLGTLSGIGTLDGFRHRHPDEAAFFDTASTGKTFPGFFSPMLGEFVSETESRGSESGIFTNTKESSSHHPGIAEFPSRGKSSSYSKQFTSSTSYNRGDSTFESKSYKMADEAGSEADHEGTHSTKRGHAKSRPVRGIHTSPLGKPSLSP
Sequence (P02675 45-491 limits assumed): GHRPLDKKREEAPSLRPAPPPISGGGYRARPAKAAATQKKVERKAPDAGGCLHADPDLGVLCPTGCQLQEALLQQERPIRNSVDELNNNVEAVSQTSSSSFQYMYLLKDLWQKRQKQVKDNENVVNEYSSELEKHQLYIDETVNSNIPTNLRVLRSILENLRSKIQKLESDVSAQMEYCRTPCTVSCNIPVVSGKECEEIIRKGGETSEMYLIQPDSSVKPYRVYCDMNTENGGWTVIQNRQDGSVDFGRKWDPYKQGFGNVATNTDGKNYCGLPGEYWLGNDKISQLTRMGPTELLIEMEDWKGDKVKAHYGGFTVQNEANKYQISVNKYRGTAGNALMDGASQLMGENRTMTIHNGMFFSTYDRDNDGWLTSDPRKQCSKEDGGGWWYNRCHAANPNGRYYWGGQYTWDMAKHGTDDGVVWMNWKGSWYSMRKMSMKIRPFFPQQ
Sequence (P02679 27-437 isoform P02679-2 limits assumed): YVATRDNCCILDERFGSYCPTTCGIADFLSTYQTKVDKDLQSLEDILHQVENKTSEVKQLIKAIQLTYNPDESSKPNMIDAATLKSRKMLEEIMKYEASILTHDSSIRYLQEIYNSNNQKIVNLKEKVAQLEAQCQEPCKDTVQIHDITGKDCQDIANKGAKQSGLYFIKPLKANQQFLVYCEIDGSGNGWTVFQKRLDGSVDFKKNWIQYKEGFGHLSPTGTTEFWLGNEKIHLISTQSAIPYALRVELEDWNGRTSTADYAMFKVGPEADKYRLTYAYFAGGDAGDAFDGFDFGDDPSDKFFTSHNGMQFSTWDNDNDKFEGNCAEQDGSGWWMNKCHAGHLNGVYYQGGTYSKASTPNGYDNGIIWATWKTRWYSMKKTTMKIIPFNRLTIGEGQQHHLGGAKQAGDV
METHOD_DESCRIPTION: Incorporation into human plasma clots in vitro
Format: biochemical
CONDITION_SUMMARY: % retained (with thrombin) - % retained (no thrombin)
Where no end group is shown, it is not given here. code Z = not defined here
Numbers only, in %.

Example entries begin here.
Z-NQEQVSPYG-Pn216 ({code Z}-NQEQVSPYG-Pn216; reading uncertain; also: 99mTc complex, printed as Z-NQEQVSPYG-Pn216) [^99mTc-Cmpd 18] : 9.7
Ac-NQEQVSPYTLLKG-Hynic (also: 99mTc complex) [^99mTc-Cmpd 4] : 21.0
NQEQVSPYTLLKG-Pn216 (also: 99mTc complex) [^99mTc-Cmpd 6] : 64.3

Batch request: % specific uptake for each of the following substances.
1. Fmoc-NQEQVSP(I-Y)TLLKG-Pn216 [^99mTc-Cmpd 26]
2. Ac-LGPGQSKVIG-Pn44 (also: 99mTc complex) [^99mTc-Cmpd 45]

-- reply
55.1
28.6

-- ask Request the reported % specific uptake associated with Ac-NAEAVSPYTLLKG-Pn216 (also: 99mTc complex) [^99mTc-Cmpd 14]
-- reply 2.8
